solubility at 24 h values by entry
- measurement_notes: Equilibrium shake flask solubility assay, thermodynamic solubility in citrate buffer pH 4
- Format: physicochemical
- conditions_used: citrate buffer, pH 4, aqueous buffer, thermodynamic from solid, citrate buffer pH 4, 24 h, room temperature; read-out: Solubility in aqueous Citrate buffer pH4
Expressed in µg/mL, but write only the number.

compound: COc1cc(F)ccc1-c1cc(Nc2cc(CS(C)(=N)=O)cc(C)n2)ncc1F (racemic)
unit_info: µg/mL
solubility at 24 h: 470
--
compound: COc1cc(F)ccc1-c1cc(Nc2cc(CS(C)(=N)=O)ccn2)ncc1F (racemic) [Example 1]
unit_info: µg/mL
solubility at 24 h: 489
--
compound: CCOC(=O)N=S(C)(=O)Cc1ccnc(Nc2cc(-c3ccc(F)cc3OC)c(F)cn2)c1 (racemic)
unit_info: µg/mL
solubility at 24 h: 185

Attention now turns to another entry.
Q: Entry COc1cc(F)ccc1-c1cc(Nc2cc(CS(C)(=O)=NC#N)ccn2)ncc1F (single isomer, unassigned) : reported solubility at 24 h = ?
A: 102

====

- Test system: B16F10, mouse melanoma cells
- measurement_notes: Proliferation assay, B16F10 (crystal violet)
- Type: cell-based
- conditions_used: Mus musculus, B16-F10, 96 h, B16F10, 4 days; read-out: Inhibition of B16F10 cell proliferation IC50
Measured pIC50, listed per entry for reference.
// pIC50 is dimensionless: -log10 of concentration (M)

molecule: COc1cc(F)ccc1-c1cc(Nc2cc(CS(C)(=O)=NC(C)=O)ccn2)ncc1F (racemic)
experimental_system: B16F10, mouse melanoma cells
recorded_metric: pIC50
measured: 6.74
--
molecule: CCOc1cc(F)ccc1-c1cc(Nc2cc(CS(C)(=N)=O)cc(F)n2)ncc1F (single isomer, unassigned; (+)) [Example 28]
experimental_system: B16F10, mouse melanoma cells
recorded_metric: pIC50
measured: 6.82
--
molecule: COc1cc(F)ccc1-c1cc(Nc2cc(CS(C)(=N)=O)cc(F)n2)ncc1F (racemic) [Example 17]
experimental_system: B16F10, mouse melanoma cells
recorded_metric: pIC50
measured: 7.17
--
molecule: COc1cc(F)ccc1-c1cc(Nc2cc(CS(C)(=N)=O)c(Br)c(C)n2)ncc1F (racemic)
experimental_system: B16F10, mouse melanoma cells
recorded_metric: pIC50
measured: 6.92

Q: Recorded pIC50 of COc1cc(F)ccc1-c1cc(Nc2cc(CS(C)(=N)=O)cc(C(F)(F)F)n2)ncc1F (racemic) [Example 21] , please.
A: 7.42

Q: Name the recorded pIC50 for COc1cc(F)ccc1-c1cc(Nc2cc(CS(C)(=N)=O)cc(F)n2)ncc1F (single isomer, unassigned; (+)) [Example 19] .
A: 7.02

Q: // returns reported pIC50 for input CCOC(=O)N=S(C)(=O)Cc1cc(Nc2cc(-c3ccc(F)cc3OC)c(F)cn2)nc(OC)c1 (racemic)
A: 7.35

====

- experimental_system: CDK9/CycT1 (Homo sapiens, UniProt P50750)
- Construct: Recombinant full-length His-tagged human CDK9 and CycT1; His; purchased Invitrogen PV4131; host or cells: insect cells
- Sequence (P50750 whole entry): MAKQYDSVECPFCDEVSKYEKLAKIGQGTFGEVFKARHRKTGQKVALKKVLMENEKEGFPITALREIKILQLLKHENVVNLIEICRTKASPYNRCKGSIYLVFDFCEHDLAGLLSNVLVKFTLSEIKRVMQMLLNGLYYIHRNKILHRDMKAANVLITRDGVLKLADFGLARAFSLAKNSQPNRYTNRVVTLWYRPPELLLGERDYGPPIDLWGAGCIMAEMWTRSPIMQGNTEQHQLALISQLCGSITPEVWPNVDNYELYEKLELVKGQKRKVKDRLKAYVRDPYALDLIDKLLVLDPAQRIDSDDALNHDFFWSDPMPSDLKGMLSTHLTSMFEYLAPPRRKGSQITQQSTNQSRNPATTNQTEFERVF
- Sequence (O60563 whole entry partner): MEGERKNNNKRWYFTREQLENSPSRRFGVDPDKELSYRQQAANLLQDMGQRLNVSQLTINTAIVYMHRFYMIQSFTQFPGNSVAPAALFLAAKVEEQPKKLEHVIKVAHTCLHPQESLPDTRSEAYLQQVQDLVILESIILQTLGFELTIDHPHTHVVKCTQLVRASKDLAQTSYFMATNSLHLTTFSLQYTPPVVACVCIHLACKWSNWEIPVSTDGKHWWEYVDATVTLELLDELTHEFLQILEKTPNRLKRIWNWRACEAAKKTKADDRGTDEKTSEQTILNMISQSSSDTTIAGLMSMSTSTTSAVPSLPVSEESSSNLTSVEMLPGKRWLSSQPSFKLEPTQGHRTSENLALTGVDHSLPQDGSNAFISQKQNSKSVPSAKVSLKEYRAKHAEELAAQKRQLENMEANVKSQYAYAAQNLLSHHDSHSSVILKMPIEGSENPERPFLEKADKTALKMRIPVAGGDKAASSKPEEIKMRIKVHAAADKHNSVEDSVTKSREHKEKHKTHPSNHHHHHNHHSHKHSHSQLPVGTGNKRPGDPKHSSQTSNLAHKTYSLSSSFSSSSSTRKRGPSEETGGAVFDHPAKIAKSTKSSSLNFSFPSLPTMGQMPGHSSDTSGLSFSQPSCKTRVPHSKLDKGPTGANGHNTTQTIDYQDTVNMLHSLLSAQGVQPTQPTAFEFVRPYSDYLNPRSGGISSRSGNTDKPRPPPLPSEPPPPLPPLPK
- measurement_notes: CDK9/CycT1 high ATP kinase assay (TR-FRET, 2 mM ATP)
- Format: biochemical
- conditions_used: Method 1b
recorded_metric: IC50 (nM)
API: value field is a number in nM; no unit string.

molecule: COc1cc(F)ccc1-c1cc(Nc2cc(CS(C)(=N)=O)cc(C)n2)ncc1F (single isomer, unassigned; (-)) [Example 33]
IC50, nM: 1
--
molecule: COc1cc(F)ccc1-c1cc(Nc2cc(CS(=N)(=O)CCO)ccn2)ncc1F (racemic) [Example 8]
IC50, nM: 14
--
molecule: COc1cc(F)ccc1-c1cc(Nc2cc(CS(C)(=N)=O)cc(F)n2)ncc1F (single isomer, unassigned; (+)) [Example 19]
IC50, nM: 19
--
molecule: COc1cc(F)ccc1-c1cc(Nc2cc(CS(C)(=N)=O)cc(C(F)(F)F)n2)ncc1F (racemic) [Example 21]
IC50, nM: 2
--
molecule: COc1cc(CS(C)(=N)=O)cc(Nc2cc(-c3ccc(F)cc3OC)c(F)cn2)n1 (racemic) [Example 6]
IC50, nM: 1
--
molecule: CCS(=N)(=O)Cc1ccnc(Nc2cc(-c3ccc(F)cc3OC)c(F)cn2)c1 (racemic) [Example 30]
IC50, nM: 5
--
molecule: COc1cc(F)ccc1-c1cc(Nc2cc(CS(C)(=N)=O)cc(F)n2)ncc1F (racemic) [Example 17]
IC50, nM: 1.8
--
molecule: COc1cc(F)ccc1-c1cc(Nc2cc(CS(C)(=N)=O)cc(C(F)F)n2)ncc1F (racemic) [Example 31]
IC50, nM: 1
--
molecule: CCNC(=O)N=S(C)(=O)Cc1ccnc(Nc2cc(-c3ccc(F)cc3OC)c(F)cn2)c1 (racemic) [Example 12]
IC50, nM: 2
--
molecule: COc1cc(F)ccc1-c1cc(Nc2cc(CS(C)(=O)=NC#N)ccn2)ncc1F (single isomer, unassigned) [Example 10]
IC50, nM: 1

Q: Need IC50 of COc1cc(F)ccc1-c1cc(Nc2cc(CS(C)(=N)=O)cc(Cl)n2)ncc1F (racemic) [Example 7] , thanks.
A: 2

Q: Quick check: IC50 of COc1cc(F)ccc1-c1cc(Nc2cc(CS(C)(=O)=NC(=O)C(F)(F)F)cc(F)n2)ncc1F (racemic) [Example 18] ?
A: 4

Q: Recorded IC50 of COc1cc(F)ccc1-c1cc(Nc2cc(CS(C)(=N)=O)cc(C(F)(F)F)n2)ncc1F (single isomer, unassigned; (+)) [Example 22] , please.
A: 1

Q: I'd like to know its IC50. The molecule in question is COc1cc(F)ccc1-c1cc(Nc2cc(CS(C)(=N)=O)cc(F)n2)ncc1F (single isomer, unassigned; (-)) [Example 20]
A: 1

Q: Fill in: IC50 of CCOC(=O)N=S(C)(=O)Cc1cc(Nc2cc(-c3ccc(F)cc3OC)c(F)cn2)nc(OC)c1 (racemic) [Example 15] is ___
A: 1

Q: What does the data say about its IC50? Entry: COc1cc(F)ccc1-c1cc(Nc2cc(CS(C)(=N)=O)c(Br)c(C)n2)ncc1F (racemic) [Example 5]
A: 3
